TGT: human B1R receptor (bradykinin 1 receptor) (Homo sapiens)
Construct: host or cells: CHO K1 cells (hB1R cells)
Sequence (P46663 whole entry): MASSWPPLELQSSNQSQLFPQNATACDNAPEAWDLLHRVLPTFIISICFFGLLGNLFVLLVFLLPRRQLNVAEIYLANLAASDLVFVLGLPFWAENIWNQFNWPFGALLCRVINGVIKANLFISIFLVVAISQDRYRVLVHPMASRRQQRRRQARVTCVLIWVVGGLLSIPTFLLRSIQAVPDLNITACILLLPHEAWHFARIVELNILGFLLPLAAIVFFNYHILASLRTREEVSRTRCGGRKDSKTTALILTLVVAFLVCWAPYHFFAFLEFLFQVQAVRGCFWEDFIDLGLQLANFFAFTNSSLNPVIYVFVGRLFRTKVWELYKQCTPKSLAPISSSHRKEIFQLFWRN
METHOD SUMMARY: FLIPR Ca2+ assay (Fluo-4) on CHO K1 cells stably transfected with the human B1R gene; % activation and % inhibition at 10 μM
Format: cell-based
EXPERIMENTAL CONDITIONS: CHO-K1, test substance 10 μM; CHO K1 hB1R cells; Ca2+ inflow after 0.5 nM Lys-Des-Arg9-bradykinin; read-out: B1R antagonism, human [10 μM] % inhibition
MEASUREMENT NAME: inhibition at 10 µM (%)

For orientation, consider the following solved cases.
COMPOUND	TGT	RESULT
Cc1cc(S(=O)(=O)N(C)CCOCC(=O)N2CCC(O)(c3ccc(Cl)cc3)CC2)c(C)s1	human B1R receptor (bradykinin 1 receptor) (Homo sapiens)	56.3
COc1cc(C)c(S(=O)(=O)N(C)CCOCC(=O)N2CCC(O)(CCc3cccnc3)CC2)c(C)c1	human B1R receptor (bradykinin 1 receptor) (Homo sapiens)	104
COc1cc(C)c(S(=O)(=O)N2CCCCC2COCC(=O)N2CCC(O)(c3ccccn3)CC2)c(C)c1 (stereo not shown)	human B1R receptor (bradykinin 1 receptor) (Homo sapiens)	102
CN(CCOCC(=O)N1CCC(O)(c2ccc(Cl)cc2)CC1)S(=O)(=O)c1cc(Cl)sc1Cl	human B1R receptor (bradykinin 1 receptor) (Homo sapiens)	73.1
COc1ccc(S(=O)(=O)N2Cc3ccccc3CC2COCC(=O)N2CCC(O)(Cc3ccccc3)CC2)cc1 (stereo not shown)	human B1R receptor (bradykinin 1 receptor) (Homo sapiens)	15.7

1. COc1cc(C)c(S(=O)(=O)N2CCC(OCC(=O)N3CCC(O)(Cc4ccccc4)CC3)CC2)c(C)c1C
2. O=C(COCC1CCCN1S(=O)(=O)c1c(Cl)cccc1Cl)N1CCC(O)(Cc2ccccc2)CC1 (stereo not shown)
Ask: Problem: Given the entries 1 and 2 , determine which has the lower reported inhibition at 10 µM. Answer by stating the label of the chosen item.
Reply: 2
(2: 23.5%, 1: 97.4%)

----------
TGT: B1R receptor of the rat (bradykinin 1 receptor) (Rattus norvegicus, UniProt P97583)
Construct: host or cells: CHO K1 cells (rB1R cells)
Sequence (P97583 1-337): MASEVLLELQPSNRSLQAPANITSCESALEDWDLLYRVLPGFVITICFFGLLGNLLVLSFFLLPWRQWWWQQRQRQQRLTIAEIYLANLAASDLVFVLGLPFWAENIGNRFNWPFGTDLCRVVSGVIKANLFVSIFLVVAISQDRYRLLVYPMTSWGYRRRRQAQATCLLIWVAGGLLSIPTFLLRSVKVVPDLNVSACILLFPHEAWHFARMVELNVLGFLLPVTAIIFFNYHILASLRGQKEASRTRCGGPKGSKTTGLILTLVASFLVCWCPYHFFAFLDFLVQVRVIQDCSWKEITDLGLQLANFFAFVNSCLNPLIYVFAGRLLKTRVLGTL
METHOD SUMMARY: FLIPR Ca2+ assay (Fluo-4) on CHO K1 cells stably transfected with the B1R gene of the rat; % activation and % inhibition at 10 μM
Format: cell-based
EXPERIMENTAL CONDITIONS: CHO-K1, test substance 10 μM; CHO K1 rB1R cells; Ca2+ inflow after 100 nM Des-Arg9-bradykinin; read-out: B1R antagonism, rat [10 μM] % inhibition
MEASUREMENT NAME: inhibition at 10 µM (%)

P. O=C(COCC1Cc2ccccc2CN1S(=O)(=O)c1ccccc1)N1CCC(O)(Cc2ccccc2)CC1 (stereo not shown)
Q. Cc1cc(Cl)cc(Cl)c1S(=O)(=O)N(C)CCOCC(=O)N1CCC(O)(c2ccc(Cl)cc2)CC1
Ask: Problem: Given the entries P and Q , determine which has the lower reported inhibition at 10 µM. Answer by stating the label of the chosen item.
Reply: P

----------
TGT: B1R receptor of the rat (bradykinin 1 receptor) (Rattus norvegicus)
Construct: host or cells: CHO K1 cells (rB1R cells)
Sequence (P97583 1-337): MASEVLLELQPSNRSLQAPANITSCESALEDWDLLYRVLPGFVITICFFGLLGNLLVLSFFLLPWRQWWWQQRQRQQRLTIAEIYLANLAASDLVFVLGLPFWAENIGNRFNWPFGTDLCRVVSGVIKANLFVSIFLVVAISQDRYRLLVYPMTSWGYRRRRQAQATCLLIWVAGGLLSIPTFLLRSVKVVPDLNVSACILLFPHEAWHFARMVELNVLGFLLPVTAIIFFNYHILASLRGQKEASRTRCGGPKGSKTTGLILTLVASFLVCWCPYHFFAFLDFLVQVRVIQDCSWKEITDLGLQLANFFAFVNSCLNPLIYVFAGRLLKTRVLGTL
METHOD SUMMARY: FLIPR Ca2+ assay (Fluo-4) on CHO K1 cells stably transfected with the B1R gene of the rat; % activation and % inhibition at 10 μM
Format: cell-based
EXPERIMENTAL CONDITIONS: CHO-K1, test substance 10 μM; CHO K1 rB1R cells; Ca2+ inflow after 100 nM Des-Arg9-bradykinin; read-out: B1R antagonism, rat [10 μM] % inhibition
MEASUREMENT NAME: inhibition at 10 µM (%)

MOLECULE	MEASUREMENT NAME	RESULT
O=C(COC1CCN(S(=O)(=O)c2cccc(C(F)(F)F)c2)C1)N1CCC(O)(c2ccccn2)CC1 (stereo not drawn) [Example 59]	inhibition at 10 µM	16.6
O=C(COC1CCCN(S(=O)(=O)c2c(Cl)cc(Cl)cc2Cl)C1)N1CCC(O)(Cc2ccccc2)CC1 (stereo not drawn) [Example 249]	inhibition at 10 µM	87.3

1. COc1ccc(S(=O)(=O)N(C)CCOCC(=O)N2CCC(O)(c3ccccn3)CC2)cc1OC [Example 41]
2. COc1cc(C)c(S(=O)(=O)N2CCC(COCC(=O)N3CCC(O)(c4ccc(Cl)c(C(F)(F)F)c4)CC3)C2)c(C)c1 (stereo not drawn) [Example 228]
3. Cc1ccc(F)cc1S(=O)(=O)N(C)CCOCC(=O)N1CCC(O)(c2ccccn2)CC1 [Example 97]
4. COc1cc(C)cc(C)c1S(=O)(=O)N1CCC(OCC(=O)N2CCC(O)(c3ccc(Br)cc3)CC2)C1 (stereo not drawn) [Example 264]
5. CN(CCOCC(=O)N1CCC(O)(c2ccccn2)CC1)S(=O)(=O)c1ccc(Cl)s1 [Example 103]
Ask: Sort (5 molecules) by inhibition at 10 µM: min first. Use the labels to give the ranking in the order requested.
Reply: 1, 4, 5, 3, 2
(1: -6.31%, 4: 4.5%, 5: 19.3%, 3: 43.2%, 2: 101%)

a. O=C(COCC1CCCCN1S(=O)(=O)c1ccccc1C(F)(F)F)N1CCC(O)(c2ccc(Cl)c(C(F)(F)F)c2)CC1 (stereo not drawn) [Example 178]
b. CN(C1CCCCC1OCC(=O)N1CCC(O)(Cc2ccccc2)CC1)S(=O)(=O)c1ccc(Cl)c(Cl)c1 (stereo not drawn) [Example 43]
Ask: Problem: Given the entries a and b , determine which has the lower reported inhibition at 10 µM. Answer by stating the label of the chosen item.
Reply: b
(b: 33.9%, a: 104%)

----------
TGT: B1R receptor of the rat (bradykinin 1 receptor) (Rattus norvegicus)
Construct: host or cells: CHO K1 cells (rB1R cells)
Sequence (P97583 1-337): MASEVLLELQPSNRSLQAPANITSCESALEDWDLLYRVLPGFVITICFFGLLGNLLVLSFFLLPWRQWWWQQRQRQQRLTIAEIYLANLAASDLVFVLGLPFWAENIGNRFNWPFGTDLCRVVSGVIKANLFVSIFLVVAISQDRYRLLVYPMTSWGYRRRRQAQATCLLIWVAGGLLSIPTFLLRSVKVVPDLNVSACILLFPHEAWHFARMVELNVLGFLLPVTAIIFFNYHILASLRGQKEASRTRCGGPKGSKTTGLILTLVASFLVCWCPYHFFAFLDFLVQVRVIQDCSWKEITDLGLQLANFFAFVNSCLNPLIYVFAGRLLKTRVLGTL
METHOD SUMMARY: FLIPR Ca2+ assay (Fluo-4) on CHO K1 cells stably transfected with the B1R gene of the rat; % activation and % inhibition at 10 μM
Assay type: cell-based
EXPERIMENTAL CONDITIONS: CHO-K1, test substance 10 μM; CHO K1 rB1R cells; Ca2+ inflow after 100 nM Des-Arg9-bradykinin; read-out: B1R antagonism, rat [10 μM] % inhibition
MEASUREMENT NAME: inhibition at 10 µM (%)

COMPOUND	TGT	VALUE UNITS	inhibition at 10 µM
COc1cc(C)c(S(=O)(=O)N(C)CCOCC(=O)N2CCC(O)(c3cccc(F)c3)CC2)c(C)c1	B1R receptor of the rat (bradykinin 1 receptor) (Rattus norvegicus)	%	100
O=C(COCC1CCCCN1S(=O)(=O)c1c(Cl)cc(C(F)(F)F)cc1Cl)N1CCC(O)(Cc2ccccc2)CC1 (centres unmarked)	B1R receptor of the rat (bradykinin 1 receptor) (Rattus norvegicus)	%	101
COc1cc(C)c(S(=O)(=O)N(C)CCOCC(=O)N2CCC(O)(c3ccccc3)CC2)c(C)c1	B1R receptor of the rat (bradykinin 1 receptor) (Rattus norvegicus)	%	99.3
COc1cc(C)c(S(=O)(=O)N2Cc3ccccc3CC2COCC(=O)N2CCC(O)(Cc3ccccc3)CC2)c(C)c1C (centres unmarked)	B1R receptor of the rat (bradykinin 1 receptor) (Rattus norvegicus)	%	63.1

P. COc1cc(C)c(S(=O)(=O)N2CCCC(COCC(=O)N3CCC(O)(c4ccc(Cl)c(C(F)(F)F)c4)CC3)C2)c(C)c1 (centres unmarked)
Q. O=C(COCC1Cc2ccccc2CN1S(=O)(=O)c1ccc(F)cc1)N1CCC(O)(c2ccccn2)CC1 (centres unmarked)
R. O=C(COC1CCCCC1N(Cc1ccccc1)S(=O)(=O)c1ccc(Cl)c(Cl)c1)N1CCC(O)(Cc2ccccc2)CC1 (centres unmarked)
S. O=C(COCC1Cc2ccccc2CN1S(=O)(=O)c1ccc(Cl)c(Cl)c1)N1CCC(O)(c2ccccc2)CC1 (centres unmarked)
Ask: Rank entries according to their inhibition at 10 µM, from the largest number down. Use the labels to give the ranking in the order requested.
Reply: P, Q, S, R
(P: 79.9%, Q: 18.7%, S: 12.7%, R: -9.47%)

Source: patent US8580965B2
